System Under Test: Caspase-1 (Homo sapiens)
Assay Explanation: Concentration-Response Counterscreen for Tau: Redox Active Inhibitors of Caspase-1
Test Conditions: purified caspase-1, Ac-WEHD-AFC fluorescence kinetic; series mostly up to 40.6 µM
Inconclusive results are not listed. Calls of active or inactive are those of the source. The call rests on the fitted dose curve; in most records, active means well fitted curve in the direction sought with a large enough effect; inconclusive means small, poorly fitted or top-dose-only effect, or another doubt; inactive means no such curve, though single readings can be large or run the other way.
Possible outcomes: True (active), False (inactive)

# Chemical Structure, Assigned Category
data = [
    ("CC(=O)Nc1sc(C)c2cnn(-c3ccccc3)c(=O)c12", "False"),
    ("CCOC(=O)c1nn(-c2ccccc2)c(=O)c2c(NC(C)=O)scc12", "False"),
    ("CCOC(=O)c1nn(-c2ccccc2F)c(=O)c2c(N)scc12", "False"),
    ("CCOC(=O)c1nn(-c2ccc(C)cc2)c(=O)c2c(N)scc12", "False"),
    ("CCOC(=O)c1nn(-c2ccc(Cl)c(Cl)c2)c(=O)c2c(N)scc12", "False"),
    ("COc1ncc(-c2ccccc2)cc1N", "True"),
    ("CCOC(=O)c1nn(-c2cccc(C(F)(F)F)c2)c(=O)c2c(N)scc12", "False"),
    ("CCOC(=O)c1nn(-c2ccc(OC)cc2)c(=O)c2c(N)scc12", "False"),
    ("CCOC(=O)c1nn(-c2ccccc2)c(=O)c2c(N)sc(C)c12", "False"),
    ("Nc1nn(-c2ccccc2)c(=O)c2c(N)scc12", "False"),
    ("Nc1cc(-c2ccccc2)c[nH]c1=O", "True"),
    ("CCOC(=O)c1ccc(-n2nc(C(=O)OCC)c3csc(N)c3c2=O)cc1", "False"),
    ("CCOC(=O)c1nn(-c2ccc(C)c(C)c2)c(=O)c2c(N)scc12", "False"),
]

Each recorded value in this set is attributed to PubChem BioAssay AID1711.
